meta.source: ChEMBL document CHEMBL1124567

- assay_procedure: Dissociation constant of compound at 25 degree C
- Format: physicochemical
readout_name: pKa

// worked examples, pKa included
COc1cc(C)c2cc(Br)cc(C)c2n1 : 2.96
Cc1cc(N2CCOCC2)nc2c(C)cc(Br)cc12 : 6.37
COc1ccc2ccccc2n1 : 3.16
Cc1cc(N(C)C)nc2ccc(Br)cc12 : 7.34
COc1cc(Br)cc2c(N(C)C)cc(C)nc12 : 8.18
COc1cc(C)nc2c(OC)cc(Br)cc12 : 6.39

Please fill in: pKa reported for COc1cccc2cccnc12 = 4.99

----------
- assay_procedure: Dissociation constent of compound at 20 degree C
- Format: ADME
readout_name: pKa
Respond with the number and no other words.

Brc1ccc2ncccc2c1 : 3.91

// moving on: another record for pKa
// sample Nc1ccnc2ccccc12 [QUINOLIN-4-AMINE] , its pKa was 9.13

----------
Measured MIC of individual entries
- Test system: Serratia marcescens
- assay_procedure: Comparative in vitro antibacterial activity of compound with trimethoprim against Serratia marcescens CN2398
- Type: functional

Cc1cc(N2CCOCC2)nc2cc(Cc3cnc(N)nc3N)ccc12 : > 10 µg/mL
COc1cc(C)c2ccc(Cc3cnc(N)nc3N)cc2n1 : > 100 µg/mL

Notebook: COc1cc(Cc2cnc(N)nc2N)cc2c(N(C)C)cc(C)nc12 , MIC read as > 300 µg/mL

----------
- System: Streptococcus pyogenes
- assay_procedure: Comparative in vitro antibacterial activity of compound with trimethoprim against Streptococcus pyogenes CN10
- Format: functional
readout_name: MIC (mg/L)
Enter your answer as a number in mg/L; do not include the unit.

Illustrative cases are given below, each with its answer.
COc1cc(C)c2cc(Cc3cnc(N)nc3N)cc(C)c2n1 : 3
Cc1cc(N(C)C)nc2ccc(Cc3cnc(N)nc3N)cc12 : 10
COc1cc(C)nc2c(OC)cc(Cc3cnc(N)nc3N)cc12 : 0.3

In plain terms, Cc1cc(N(C)C)nc2c(C)cc(Cc3cnc(N)nc3N)cc12 has a documented MIC of 3

----------
- System: Mycolicibacterium smegmatis
- assay_procedure: Comparative in vitro antibacterial activity of compound with trimethoprim against Mycobacterium smegmatis S 3254
- Type: functional
readout_name: MIC (µg/mL)
Form entry: value (µg/mL) — number only.

COc1cc(C)c2ccc(Cc3cnc(N)nc3N)cc2n1 : 3

According to the records, this compound Cc1cc(N2CCOCC2)nc2cc(Cc3cnc(N)nc3N)ccc12 displays MIC of 3

Looking up COc1cc(C)nc2c(OC)cc(Cc3cnc(N)nc3N)cc12 , I found its MIC recorded as 3

# MIC of COc1cc(Cc2cnc(N)nc2N)cc2c(N(C)C)cc(C)nc12 = 100
